molecular target: Platelet-derived growth factor receptor alpha (Homo sapiens) (UniProt P16234); details: at 10 µM
Sequence (P16234 whole entry): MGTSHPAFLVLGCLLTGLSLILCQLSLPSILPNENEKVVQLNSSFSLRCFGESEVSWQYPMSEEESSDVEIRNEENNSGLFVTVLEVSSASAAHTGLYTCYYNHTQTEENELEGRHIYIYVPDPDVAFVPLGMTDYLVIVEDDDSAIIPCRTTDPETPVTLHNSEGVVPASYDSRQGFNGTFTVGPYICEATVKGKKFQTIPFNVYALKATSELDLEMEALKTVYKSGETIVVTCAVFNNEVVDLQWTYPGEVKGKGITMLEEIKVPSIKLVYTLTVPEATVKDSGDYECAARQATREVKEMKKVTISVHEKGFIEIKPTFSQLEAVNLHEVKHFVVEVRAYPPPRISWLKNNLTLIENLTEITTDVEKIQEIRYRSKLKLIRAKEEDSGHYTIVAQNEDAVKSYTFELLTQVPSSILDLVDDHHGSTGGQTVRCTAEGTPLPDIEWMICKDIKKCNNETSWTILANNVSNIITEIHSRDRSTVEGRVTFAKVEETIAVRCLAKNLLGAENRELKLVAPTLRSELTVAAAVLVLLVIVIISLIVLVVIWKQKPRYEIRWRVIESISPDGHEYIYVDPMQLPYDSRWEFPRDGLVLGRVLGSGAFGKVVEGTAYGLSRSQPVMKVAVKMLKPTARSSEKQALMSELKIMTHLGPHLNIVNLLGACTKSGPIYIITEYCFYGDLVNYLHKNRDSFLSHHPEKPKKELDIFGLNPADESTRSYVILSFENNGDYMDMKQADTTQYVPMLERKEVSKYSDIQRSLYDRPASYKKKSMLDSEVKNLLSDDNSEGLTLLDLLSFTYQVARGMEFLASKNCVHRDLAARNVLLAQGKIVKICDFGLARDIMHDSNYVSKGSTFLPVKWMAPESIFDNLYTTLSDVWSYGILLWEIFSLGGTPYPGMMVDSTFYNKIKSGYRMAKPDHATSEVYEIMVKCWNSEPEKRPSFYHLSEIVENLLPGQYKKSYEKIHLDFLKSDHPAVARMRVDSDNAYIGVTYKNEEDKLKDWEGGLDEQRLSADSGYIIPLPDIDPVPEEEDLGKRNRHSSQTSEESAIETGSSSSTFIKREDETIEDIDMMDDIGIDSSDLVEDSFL
MEASURED_PROPERTY: residual activity (%)
Give the number; % is assumed, so skip it.

Past entries and their recorded results:
NCCNc1ncc(C(N)=O)c(Nc2cccc(C(F)(F)F)c2)n1: 74
COc1ccc2c(c1)c(C1=C(c3c[nH]c4ccccc34)C(=O)NC1=O)cn2CCCN(C)C: 66
O=C(Nc1ccc(Cl)cc1)c1ccccc1NCc1ccncc1: 7
N#C/C(=C\c1ccc(O)c(O)c1)C(=O)NCc1ccccc1: 100
CCCCc1c(-c2ccc(OC)cc2)[nH]c2nccnc12: 111
Nc1ncnc2[nH]nc(Nc3ccc(F)cc3)c12: 111
COc1cc2c(cc1OC)-c1n[nH]c(Nc3cccc(F)c3)c1C2: 1
O=C(c1cc2cc(O)ccc2[nH]1)c1cc2cc(O)ccc2[nH]1: 6
CCN(CC)CCNC(=O)c1c(C)[nH]c(/C=C2\C(=O)Nc3ccc(Cl)cc32)c1C: 1
Cn1c2ccccc2c2c3c(c4c5ccccc5n(CCC#N)c4c21)CNC3=O: 76

Let us move to another entry and its residual activity.
INPUT: If you can, please state the reported residual activity value of c1ccc(-c2cnc(Nc3ccc(OCCN4CCCC4)cc3)s2)cc1 .
OUTPUT: 1
